Target Under Test: T1, biotinylated IgE Fc (UniProt P01854-1 104-428, biotinylated)
T1 construct: also called IgE Fc (made in-house ALK, Denmark)
T1 sequence (P01854 other isoform, or with tags, fused parts or gaps): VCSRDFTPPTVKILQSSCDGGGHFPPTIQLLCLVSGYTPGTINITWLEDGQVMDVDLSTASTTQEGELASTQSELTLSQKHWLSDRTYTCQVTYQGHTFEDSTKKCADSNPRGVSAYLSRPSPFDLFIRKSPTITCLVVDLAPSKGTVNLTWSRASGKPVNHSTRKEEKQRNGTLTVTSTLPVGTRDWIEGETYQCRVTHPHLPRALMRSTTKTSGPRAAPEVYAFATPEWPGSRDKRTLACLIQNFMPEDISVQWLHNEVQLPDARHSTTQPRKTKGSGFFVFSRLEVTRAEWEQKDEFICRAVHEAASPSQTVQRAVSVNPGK
Assay Summary: BLI (Octet), IgE Fc on sensor, 1:1 fit
Endpoint: kon (M⁻¹ s⁻¹)

{"columns": ["Binder", "kon [M⁻¹ s⁻¹]"],
 "data": [
  ["sdAb B1 (VHH) VHH: QVQLQESGGGLVQTGGSLRLSCAVHGRTFSNTGMGWFRQAPGNERQFVAIISPSGTSTYYADSVKGRFTISRDPAKNTVYLQMNSLKMDDTAVYYCAASYGSNWSTLRHQRRNEYDAWGQGTQVAVS", 760000],
  ["sdAb A1 (VHH, also called sdAb 026; IGE026) VHH: EVQLLESGGGLVQPGGSLRLSCAASGFTFGNYDMAWVRQAPGKRPEWVSSIDTGGDITHYADSVKGRFTISRDNAKNTLYLQMNSLRPEDTAVYWCATDEEYALGPNEFDYYGQGTLVTVSS", "1e+06"],
  ["sdAb B2 (VHH) VHH: QVQLVESGGGLVQAGGSLRLSCAVFGSTFSNNVADWYRQAPGKQRELVARISASGATREYGDSVKGRFTISRDDAKNTMYLQMNNLKPEDTAVYRCHKIEWEDLSRKDYWGQGTQVTVS", 700000]
]}

[a] sdAb B3 (VHH) VHH: DVQLQESGGGLVQAGGSLRLSCAASGFIFRLAGMSWVRQAPGKGFEWVSGITMDGSTTNYADSVKGRFTISRDNSKNRLYLQMNSLKPEDTAVYYCARGAKGGYNDPRGQGTQVTVS
[b] sdAb D2 (VHH) VHH: DVQLQESGGGLVEAGGSLRLSCVASGRTFSGWSMGWFRQAPGKEREFVAAISWVGSWIGGTVYSNSVKGRFTISRDNARTTVYLQMNSLKPEDTAVYFCAAANSETPRIFASEYDYWGQGTQVTVS
[c] sdAb D1 (VHH) VHH: DVQLQESGGGLVQAGGSLRLSCAASGLTFSRCDMGWFRQAPGKEREFVARISANGASTHYADFVKGRFTISRDNAKNTVYLQMNYLKPEDTAVYICAAARVPVTWQLYDYWGQGTQVTVS
Lookup: Order these by kon, descending, and give the full ranking. Could you list the labels in the order requested?
Found: a, b, c
